Consider the following molecules and their measured Emax readings.
- assay.target: human κ-opioid receptor (OPRK1) (Homo sapiens, UniProt P41145)
- Sequence (P41145 whole entry): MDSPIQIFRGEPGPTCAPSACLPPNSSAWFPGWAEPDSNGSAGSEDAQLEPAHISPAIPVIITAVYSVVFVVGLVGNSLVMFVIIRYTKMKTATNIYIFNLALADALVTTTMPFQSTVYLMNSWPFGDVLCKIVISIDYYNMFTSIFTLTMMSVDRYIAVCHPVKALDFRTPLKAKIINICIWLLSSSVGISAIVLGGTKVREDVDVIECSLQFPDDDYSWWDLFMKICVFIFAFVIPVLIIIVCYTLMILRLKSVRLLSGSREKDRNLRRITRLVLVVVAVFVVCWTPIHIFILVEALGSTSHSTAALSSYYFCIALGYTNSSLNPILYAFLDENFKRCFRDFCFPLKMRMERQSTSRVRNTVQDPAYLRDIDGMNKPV
- experiment.description: Forskolin-induced cAMP accumulation assay, KOR agonist mode
- condition.details: CHO-K1, read-out: KOR Agonist %Emax ± SEM
Report as a plain number; the unit % is understood.

CC1C2Cc3ccc(O)cc3C1(C)CCN2CCc1ccc(Br)cc1 (stereo not shown) :: 100
CC1c2ccc(O)cc2[C@@]2(C)CCN(CCc3ccccc3)[C@@H]1[C@H]2C (single isomer, unassigned; (+)) [(+)-39] :: 37
C[C@H]1[C@H]2Cc3ccc(O)cc3[C@]1(C)CCN2CCc1ccc(F)cc1 :: 34

Please examine the following record next.
*Q* # return Emax of CC1C2Cc3ccc(O)cc3C1(C)CCN2CCc1ccccc1 (stereo not shown) (system: human κ-opioid receptor (OPRK1) (Homo sapiens, UniProt P41145))
*A* 25

* * *

# reported pEC50; entries follow
- assay.target: human κ-opioid receptor (OPRK1) (Homo sapiens)
- experiment.description: Forskolin-induced cAMP accumulation assay, KOR agonist mode
pEC50: −log10 of the molar value.

Answered examples (2):
CC1C2Cc3ccc(O)cc3C1(C)CCN2CCc1c(Cl)cccc1Cl (stereo not drawn) [Compound 22] :: < 5.00
CC1C2Cc3ccc(O)cc3C1(C)CCN2CCc1cccc(Br)c1 (stereo not drawn) [Compound 13] :: < 5.00

*Q* Assign pEC50 to the following record: C[C@H]1[C@H]2Cc3ccc(O)cc3[C@]1(C)CCN2CCc1c[nH]c2ccccc12 [Compound 26]
*A* < 5.00

* * *

- assay.target: human δ-opioid receptor (OPRD1) (Homo sapiens, UniProt P41143)
- Sequence (P41143 whole entry): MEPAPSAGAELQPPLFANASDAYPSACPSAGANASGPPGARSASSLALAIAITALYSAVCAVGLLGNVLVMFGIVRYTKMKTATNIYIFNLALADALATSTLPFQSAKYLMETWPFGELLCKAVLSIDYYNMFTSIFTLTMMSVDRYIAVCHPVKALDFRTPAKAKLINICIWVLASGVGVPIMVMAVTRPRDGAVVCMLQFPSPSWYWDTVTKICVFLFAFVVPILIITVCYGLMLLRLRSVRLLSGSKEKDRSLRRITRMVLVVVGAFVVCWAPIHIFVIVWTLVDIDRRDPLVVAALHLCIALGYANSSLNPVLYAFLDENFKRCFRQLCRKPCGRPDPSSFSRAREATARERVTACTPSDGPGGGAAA
- experiment.description: Forskolin-induced cAMP accumulation assay, DOR agonist mode
Decision: EC50 beneath 10 nM gives satisfied; EC50 meeting or exceeding 10 nM gives not satisfied.

Here's what some known entries look like.
CC1C2Cc3ccc(O)cc3C1(C)CCN2CCc1ccccc1Cl (stereo not shown) :: not satisfied
CC1C2Cc3ccc(O)cc3C1(C)CCN2CCc1ccccc1Br (stereo not shown) :: not satisfied
C=C1c2ccc(O)cc2[C@@]2(C)CCN(CCc3ccccc3)[C@@H]1[C@H]2C [(+)-38] :: not satisfied
CC1C2Cc3ccc(O)cc3C1(C)CCN2CCc1ccc(Cl)cc1 (stereo not shown) :: satisfied
CC1c2ccc(O)cc2[C@@]2(C)CCN(CCc3ccccc3)[C@@H]1[C@H]2C (single isomer, unassigned; (+)) [(+)-39] :: not satisfied
CC1C2Cc3ccc(O)cc3C1(C)CCN2CCc1ccc(O)cc1 (stereo not shown) :: satisfied
COc1ccc(CCN2CCC3(C)c4cc(O)ccc4CC2C3C)cc1 (stereo not shown) :: satisfied
CC1C2Cc3ccc(O)cc3C1(C)CCN2CCc1cccc(Br)c1 (stereo not shown) :: not satisfied
CC1C2Cc3ccc(O)cc3C1(C)CCN2CCc1cccc(Cl)c1 (stereo not shown) :: not satisfied
CC1C2Cc3ccc(O)cc3C1(C)CCN2CCc1ccccc1[N+](=O)[O-] (stereo not shown) :: not satisfied

*Q* Lab log: compare recorded EC50 with 10 nM; is it strictly lower for C=C1c2ccc(O)cc2[C@]2(C)CCN(CCc3ccccc3)[C@H]1[C@@H]2C [(−)-38] ?
*A* satisfied

*Q* Does this compound meet the criterion EC50 < 10 nM? C[C@H]1[C@H]2Cc3ccc(O)cc3[C@]1(C)CCN2CCc1ccc(F)cc1
*A* not satisfied

*Q* Criterion: EC50 strictly below 10 nM. Is it met by CC1C2Cc3ccc(O)cc3C1(C)CCN2CCc1ccccc1 (stereo not shown) ?
*A* satisfied
